- Protocol details: Neurotoxicity activity in ip dosed mouse assessed as induction of motor impairment by rotarod test
- Format: toxicity, organism-based
- Condition: in vivo
Listing of recorded TD50 by entry.
Supply the numeric figure in mg/kg, leaving out any unit text.

CC(c1ccccc1)C1CC(=O)N(CN2CCN(CCO)CC2)C1=O.Cl (racemic) :: 290
CN1CCN(CN2C(=O)CC(Cc3ccccc3)C2=O)CC1.Cl (racemic) :: 324

Kindly review the next compound as well.
[ask] Reported TD50 for O=C1CC(Cc2ccccc2)C(=O)N1CN1CCN(c2ccc(Cl)c(Cl)c2)CC1 (racemic) : what is it?
[reply] 246
